Target: N-acylethanolamine-hydrolyzing acid amidase (Rattus norvegicus) (UniProt Q5KTC7)
Sequence (Q5KTC7 whole entry, looked up): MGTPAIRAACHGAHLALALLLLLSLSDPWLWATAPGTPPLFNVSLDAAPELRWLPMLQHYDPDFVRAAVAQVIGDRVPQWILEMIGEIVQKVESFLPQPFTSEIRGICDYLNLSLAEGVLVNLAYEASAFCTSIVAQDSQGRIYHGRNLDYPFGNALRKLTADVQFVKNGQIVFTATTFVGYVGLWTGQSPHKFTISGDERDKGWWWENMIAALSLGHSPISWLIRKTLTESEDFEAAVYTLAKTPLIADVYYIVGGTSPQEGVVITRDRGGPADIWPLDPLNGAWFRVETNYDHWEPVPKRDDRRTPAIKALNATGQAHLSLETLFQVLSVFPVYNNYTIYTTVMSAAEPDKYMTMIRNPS
Assay: Inhibition of N-palmitoylethanolamine-selective acid amidase (NPAA) from rat lung homogenates at 100 uM
observed-property: inhibition (%)
Answers are plain numbers, in %.

Use the examples below as a reference point.
[
  {
    "compound": "CCCCCCCCCCCCCCCC(=O)OCCCl",
    "inhibition / %": 55
  },
  {
    "compound": "CCCCCCCCCCCCCCCCOC(=O)CC [HEXADECYLPROPIONATE]",
    "inhibition / %": 71
  },
  {
    "compound": "CCCCCCCCCCCCCCCNC(=O)CCO",
    "inhibition / %": 77
  },
  {
    "compound": "CCCCCCCCCCCCCCCC(=O)NC1CCCCC1",
    "inhibition / %": 23
  },
  {
    "compound": "CCCCCCCCCCCCCCCC(=O)OC1CCCCC1 [CYCLOHEXYL PALMITATE]",
    "inhibition / %": 84
  }
]

Provide the reported inhibition of each entry below, same order.
1. CCCCCCCCCCCCCCCCOC(C)=O
2. CCCCCCCCCCCCCCCC(=O)OCCBr
3. CCCCCCCCCCCCCCCC(=O)OC(C)C
4. CCCCCCCCCCCCCCCC(=O)NC(C)C
5. CCCCCCCCCCCCCCCC(=O)OCc1ccccc1
6. CCCCCCCCCCCCCCCC(=O)OC(C)(C)C

1: 68; 2: 45; 3: 44; 4: 25; 5: 50; 6: 23

Consider the compound shown here: `CCCCCCCCCCCCCCCC(=O)NCCO` What is its recorded inhibition?
34
